Where these numbers come from: paper PMC9482650

Molecular target: GORASP1, Q9BQQ3
Sequence (Q9BQQ3 1-208): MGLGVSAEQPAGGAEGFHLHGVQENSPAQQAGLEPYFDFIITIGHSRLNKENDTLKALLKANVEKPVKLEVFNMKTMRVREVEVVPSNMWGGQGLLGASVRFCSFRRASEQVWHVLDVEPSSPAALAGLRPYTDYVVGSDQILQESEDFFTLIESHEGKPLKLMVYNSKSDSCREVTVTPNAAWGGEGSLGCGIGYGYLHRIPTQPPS
Assay: holdup assay
Set-up: key: below the threshold = too weak to quantify, mostly under pKd 3.1 to 4
Conditions: plain residues with an end cap or a label only (N-terminal biotin on a linker: ado-ado)
experimental.endpoint: pKd

INSERT INTO assay_data (binder, result) VALUES
  ('RFQQRMQTHV [KIRREL1, Q96J84]', 'below the threshold'),
  ('EPQYQPGENL [SRC, P12931]', 'below the threshold'),
  ('REEPDHSTEV [CCRL2, O00421]', 'below the threshold'),
  ('LKDDELKTKL [SLCO1A2, P46721]', 'below the threshold'),
  ('KSRVAFFEEL [NF2, P35240;P35240-1]', 4.06),
  ('KKMLQRRTLL [OR8G1, Q15617]', 4.06),
  ('ILRKSTTTTV [PRR16, Q569H4]', 4.19),
  ('MQHQRTHTRV [ZSCAN30, Q86W11]', 4.1),
  ('VLYPREGTEV [FOXI1, Q12951]', 'below the threshold'),
  ('GTGYDRKDYV [CLDN3, O15551]', 'below the threshold'),
  ('QRPYRRGSEI [KCNJ18, B7U540]', 'below the threshold'),
  ('DFLSTFHIRI [CIB2, O75838]', 4.59),
  ('MHIQEKGFHV [EPHA6, Q9UF33]', 'below the threshold'),
  ('PPGKHLVTEV [KCNA7, Q96RP8]', 'below the threshold'),
  ('KRPEMTSSSV [MUC3A, MUC3B, Q02505;Q9H195]', 'below the threshold'),
  ('RDPPAEWTRV [PTPN18, Q99952]', 4.07);
